- testedSystem: CDK1 CCNA2 (human) (UniProt P06493+P20248)
- Sequence (P06493 whole entry, looked up): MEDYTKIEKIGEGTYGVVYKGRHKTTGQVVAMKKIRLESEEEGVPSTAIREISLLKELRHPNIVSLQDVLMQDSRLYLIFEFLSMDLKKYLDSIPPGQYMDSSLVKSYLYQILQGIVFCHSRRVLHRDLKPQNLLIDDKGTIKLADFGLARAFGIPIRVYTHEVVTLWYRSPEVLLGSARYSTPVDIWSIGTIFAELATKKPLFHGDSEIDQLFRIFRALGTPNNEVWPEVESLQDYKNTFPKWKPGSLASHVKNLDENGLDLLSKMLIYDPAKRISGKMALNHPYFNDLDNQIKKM
- Sequence (P20248 whole entry, looked up): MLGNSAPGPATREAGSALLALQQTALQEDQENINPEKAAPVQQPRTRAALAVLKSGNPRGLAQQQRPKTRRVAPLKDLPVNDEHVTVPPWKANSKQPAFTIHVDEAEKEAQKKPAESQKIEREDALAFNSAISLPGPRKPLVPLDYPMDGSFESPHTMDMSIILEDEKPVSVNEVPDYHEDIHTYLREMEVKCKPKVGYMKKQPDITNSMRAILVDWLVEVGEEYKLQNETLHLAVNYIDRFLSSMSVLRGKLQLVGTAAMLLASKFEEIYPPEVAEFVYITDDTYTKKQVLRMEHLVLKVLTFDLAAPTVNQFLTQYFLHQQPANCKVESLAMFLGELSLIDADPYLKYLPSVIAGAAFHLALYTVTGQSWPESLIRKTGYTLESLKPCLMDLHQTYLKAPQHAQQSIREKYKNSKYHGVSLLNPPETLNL
- methodSummary: radiometric filter-binding kinase assay, Kinase HotSpot
- measurementContext: compound 0.5 µM; ATP 10 µM
outcomeMeasure: residual activity
Report the figure along with its unit, number first.

Write down measured residual activity (CDK1 CCNA2 (human) (UniProt P06493+P20248)) for this molecule. `N#CC(C#N)=C(N)/C(C#N)=C/c1ccc(O)cc1`
90.6%

Write down measured residual activity (CDK1 CCNA2 (human) (UniProt P06493+P20248)) for this molecule. `CCC(=O)Nc1ccc2ncnc(Nc3cccc(Br)c3)c2c1`
87.9%

Write down measured residual activity (CDK1 CCNA2 (human) (UniProt P06493+P20248)) for this molecule. `O=C1NC(=O)C(c2cn(CCCn3ccnc3)c3ccccc23)=C1Nc1ccccc1`
88.9%

Write down measured residual activity (CDK1 CCNA2 (human) (UniProt P06493+P20248)) for this molecule. `Cc1[nH]c(/C=C2\C(=O)Nc3ccc(S(=O)(=O)N(C)c4cccc(Cl)c4)cc32)c(C)c1C(=O)N1CCN(C)CC1`
88.7%

* * *

- testedSystem: PRKCD (human)
- methodSummary: radiometric filter-binding kinase assay, Kinase HotSpot
- measurementContext: compound 0.5 µM; ATP 10 µM
outcomeMeasure: residual activity (%)
Numeric only. Scale: %

Write down measured residual activity (PRKCD (human)) for this compound. `CCOC(=O)c1c(C)[nH]c(/C=C2\C(=O)Nc3ccccc32)c1C`
91.6

Write down measured residual activity (PRKCD (human)) for this compound. `CCCC(=O)Oc1ccc2[nH]c(C(=O)c3cc4ccccc4[nH]3)cc2c1`
88.8

Write down measured residual activity (PRKCD (human)) for this compound. `COc1ccc(COc2ccc(Cc3cnc(N)nc3N)cc2OC)cc1`
87.8

* * *

Would you mind telling me the reported residual activity of each entry?
- testedSystem: EPHA8 (human)
- methodSummary: radiometric filter-binding kinase assay, Kinase HotSpot
- measurementContext: compound 0.5 µM; ATP 10 µM
Numeric only. Scale: %

Look up and report measured residual activity for this entry: `Nc1cccc(-c2cc3c(Oc4cccc(O)c4)ncnc3[nH]2)c1`
57.5

Look up and report measured residual activity for this entry: `CC(=O)c1ccc(N2CCOCC2)cc1O`
101

Look up and report measured residual activity for this entry: `N#C/C(=C(/N)Sc1ccc(N)cc1)c1ccccc1C(F)(F)F`
94.1

Look up and report measured residual activity for this entry: `CCN(CC)C(=O)c1ccc(Nc2nc(OCC3CCCCC3)c3nc[nH]c3n2)cc1`
92.1

Look up and report measured residual activity for this entry: `CC(C)N(CCC(=O)c1ccc2ccccc2c1)Cc1ccccc1`
95.9

Look up and report measured residual activity for this entry: `c1ccc(-c2n[nH]c3c2oc2ccccc23)cc1`
102

Look up and report measured residual activity for this entry: `CCN(CC)CCNC(=O)c1c(C)[nH]c(/C=C2\C(=O)Nc3ccc(F)cc32)c1C`
92.1

Look up and report measured residual activity for this entry: `CCCC(=O)Oc1ccc2[nH]c(C(=O)c3cc4ccccc4[nH]3)cc2c1`
98

Look up and report measured residual activity for this entry: `Nc1ccc2ncnc(NCCc3ccc(Oc4ccccc4)cc3)c2c1`
101

Look up and report measured residual activity for this entry: `Cc1ccc(Nc2nccc(N(C)c3ccc4c(C)n(C)nc4c3)n2)cc1S(N)(=O)=O`
90

Look up and report measured residual activity for this entry: `c1ccc(-c2n[nH]cc2-c2ccnc3ccccc23)nc1`
94.6

Look up and report measured residual activity for this entry: `CNc1cc2c(Nc3cccc(Br)c3)ncnc2cn1`
87.9

Look up and report measured residual activity for this entry: `CC[n+]1c(/C=C/N(C)c2ccccc2)n(-c2ccccc2)c2ccc(-c3nc4ccccc4s3)cc21`
96.3

Look up and report measured residual activity for this entry: `CNC(=O)c1cc(Oc2ccc(NC(=O)Nc3ccc(Cl)c(C(F)(F)F)c3)cc2)ccn1`
94.5

Look up and report measured residual activity for this entry: `O=C1NC(=O)C(c2cn(CCCn3ccnc3)c3ccccc23)=C1Nc1ccccc1`
104

Look up and report measured residual activity for this entry: `Nc1ncnc2[nH]nc(Nc3ccc(F)cc3)c12`
94

Look up and report measured residual activity for this entry: `O=C1NC(=O)/C(=C/c2ccc3c(c2)OC(F)(F)O3)S1`
93.8

Look up and report measured residual activity for this entry: `O=C1NC(=O)c2c1c1c3ccccc3n3c1c1c2c2ccccc2n1C1CCC3O1`
89.9

Look up and report measured residual activity for this entry: `O=C1Nc2ccc(Cl)cc2/C1=C/c1cc(Cl)c(O)c(Cl)c1`
91.5
